Data credit: paper PMC9822434

Format: physicochemical
Settings: estimated at pH 6.0, cCu(II) = 20 µM, cligand = 20 µM
Threshold check on pCu6.0: at or above 9 gives Met, strictly below gives Not met.

1) CN(C)C(=S)NN=Cc1cc2c(cc1O)CC[C@@H]1[C@@H]2CC[C@]2(C)[C@@H](O)CC[C@@H]12; Met

Query: For this molecule, is measured pCu6.0 9 or higher? C[C@]12CC[C@@H]3c4cc(C=NNC(N)=S)c(O)cc4CC[C@H]3[C@@H]1CCC2O (some centres unmarked)
Response: Met

Query: For this molecule, is measured pCu6.0 9 or higher? CN(C)C(=S)NN=Cc1cc2c(cc1O)CCC1C2CCC2(C)C(=O)CCC12 (centres unmarked) [Me2-estrone-TSC, reference compound]
Response: Met

Query: For this molecule, is measured pCu6.0 9 or higher? C[C@]12CC[C@@H]3c4cc(C=NNC(N)=O)c(O)cc4CC[C@H]3[C@@H]1CCC2O (some centres unmarked)
Response: Not met

Query: For this molecule, is measured pCu6.0 9 or higher? CC12CCC3c4cc(C=NNC(N)=O)c(O)cc4CCC3C1CCC2=O (centres unmarked)
Response: Not met

====

For each entry below, report its pIC50 value.
Tested on: DU-145
Assay: MTT cytotoxicity assay
Format: cell-based, human
Conditions: DU-145, MTT, 24 h incubation time
pIC50: −log10 of the molar value.

1) C[C@]12CC[C@@H]3c4cc(/C=N/N=C(N)[O-])c([O-])cc4CC[C@H]3[C@@H]1CC[C@@H]2O.O.[Cu+2]; < 4.70

State the recorded pIC50 for every item in the following list.
1. CN(C)C([S-])=N/N=C/c1cc2c(cc1[O-])CC[C@@H]1[C@@H]2CC[C@]2(C)[C@@H](O)CC[C@@H]12.O.[Cu+2]
2. CNC([S-])=N/N=C/c1cc2c(cc1[O-])CC[C@@H]1[C@@H]2CC[C@]2(C)[C@@H](O)CC[C@@H]12.O.[Cu+2]
3. CC12CCC3c4cc(C=NNC(N)=S)c(O)cc4CCC3C1CCC2=O (stereo not drawn) [estrone-TSC, reference compound]

Response:
1: 5.11; 2: 4.80; 3: < 4.70

State the recorded pIC50 for every item in the following list.
1. C[C@]12CC[C@@H]3c4cc(/C=N/N=C(N)[S-])c([O-])cc4CC[C@H]3[C@@H]1CC[C@@H]2O.O.[Cu+2]
2. [Cl][Cu][Cl] [CuCl2, reference compound]

Response:
["< 4.70", "< 4.70"]

====

Test system: S. aureus ATCC 25928
Assay: MIC determination
Assay type: cell-based, Staphylococcus aureus
Details: Staphylococcus aureus, ATCC25928; Gram-positive S. aureus ATCC 25928; Mueller Hinton Broth
Method: Klebsiella pneumoniae (ATCC 49619), Escherichia coli (ATCC 25922), Staphylococcus aureus (ATCC 25928) and Enterococcus faecalis (ATCC 29212) strains were used as Gram-negative and Gram-positive bacterial cultures. […] Minimum inhibitory concentration (MIC) values of compounds were determined according to our previous work.
For each entry below, report its MIC value.

1. C[C@]12CC[C@@H]3c4cc(C=NNC(N)=S)c(O)cc4CC[C@H]3[C@@H]1CCC2O (stereo partly shown); 25 µM
2. CNC(=S)NN=Cc1cc2c(cc1O)CC[C@@H]1[C@@H]2CC[C@]2(C)[C@@H](O)CC[C@@H]12; > 100 µM
3. CN(C)C(=S)NN=Cc1cc2c(cc1O)CC[C@@H]1[C@@H]2CC[C@]2(C)[C@@H](O)CC[C@@H]12; > 100 µM

Query: Report MIC for C[C@]12CC[C@@H]3c4cc(C=NNC(N)=O)c(O)cc4CC[C@H]3[C@@H]1CCC2O (stereo partly shown) please.
Response: 50 µM

====

Experiment: physchem
Format: physicochemical
For each entry below, report its pKa value.
Answers are plain numbers.

Worked set:
1) CNC(=S)NN=Cc1cc2c(cc1O)CC[C@@H]1[C@@H]2CC[C@]2(C)[C@@H](O)CC[C@@H]12 [Me-estradiol-TSC]; 9.28
2) CN(C)C(=S)NN=Cc1cc2c(cc1O)CC[C@@H]1[C@@H]2CC[C@]2(C)[C@@H](O)CC[C@@H]12 [Me2-estradiol-TSC]; 9.2
3) C[C@]12CC[C@@H]3c4cc(C=NNC(N)=O)c(O)cc4CC[C@H]3[C@@H]1CCC2O (some centres unmarked) [estradiol-SC]; 10

Query: Report pKa for C[C@]12CC[C@@H]3c4cc(C=NNC(N)=S)c(O)cc4CC[C@H]3[C@@H]1CCC2O (some centres unmarked) [estradiol-TSC] please.
Response: 9.23

====

Test: DPPH free radical scavenging assay
Settings: DPPH:compound = 1:1 ratio after 30 min, ethanol, 25 °C
measured_metric: % Scavenging Effect (%)
One number for each entry, in %.

Worked set:
1) CNC([S-])=N/N=C/c1cc2c(cc1[O-])CC[C@@H]1[C@@H]2CC[C@]2(C)[C@@H](O)CC[C@@H]12.O.[Cu+2]; 33.6
2) CC12CCC3c4cc(C=NNC(N)=S)c(O)cc4CCC3C1CCC2=O (stereo not shown) [estrone-TSC, reference compound]; 49.8
3) C[C@]12CC[C@@H]3c4ccc(O)cc4CC[C@H]3[C@@H]1CC[C@@H]2O; 0.5
4) CN(C)C(=S)NN=Cc1cc2c(cc1O)CC[C@@H]1[C@@H]2CC[C@]2(C)[C@@H](O)CC[C@@H]12; 100
5) C[C@]12CC[C@@H]3c4cc(C=NNC(N)=S)c(O)cc4CC[C@H]3[C@@H]1CCC2O (stereo partly shown); 72.0
6) Cc1c(C)c2c(c(C)c1O)CCC(C)(C(=O)O)O2 (stereo not shown) [Trolox, reference compound]; 100

Now for another entry.
Query: Report % Scavenging Effect for C[C@]12CC[C@@H]3c4cc(C=NNC(N)=O)c(O)cc4CC[C@H]3[C@@H]1CCC2O (stereo partly shown) please.
Response: 6.5

====

For each entry below, report its MIC value.
Tested on: S. aureus ATCC 25928
Test: MIC determination
Type: cell-based, Staphylococcus aureus
Conditions: Gram-positive S. aureus ATCC 25928; Mueller Hinton Broth
Numbers only, in µM.

Worked set:
1) CN(C)C([S-])=N/N=C/c1cc2c(cc1[O-])CC[C@@H]1[C@@H]2CC[C@]2(C)[C@@H](O)CC[C@@H]12.O.[Cu+2] [Cu(II)-Me2-estradiol-TSC]; 0.78
2) CNC([S-])=N/N=C/c1cc2c(cc1[O-])CC[C@@H]1[C@@H]2CC[C@]2(C)[C@@H](O)CC[C@@H]12.O.[Cu+2] [Cu(II)-Me-estradiol-TSC]; 6.25
3) C[C@]12CC[C@@H]3c4cc(/C=N/N=C(N)[O-])c([O-])cc4CC[C@H]3[C@@H]1CC[C@@H]2O.O.[Cu+2] [Cu(II)-estradiol-SC]; 50
4) C[C@]12CC[C@@H]3c4cc(C=NNC(N)=S)c(O)cc4CC[C@H]3[C@@H]1CCC2O (some centres unmarked) [estradiol-TSC]; 25
5) C[C@]12CC[C@@H]3c4cc(C=NNC(N)=O)c(O)cc4CC[C@H]3[C@@H]1CCC2O (some centres unmarked) [estradiol-SC]; 50

Now for another entry.
Query: Report MIC for C[C@]12CC[C@@H]3c4cc(/C=N/N=C(N)[S-])c([O-])cc4CC[C@H]3[C@@H]1CC[C@@H]2O.O.[Cu+2] [Cu(II)-estradiol-TSC] please.
Response: 3.125

====

For each entry below, report its pCu5.0 value.
Format: physicochemical
Conditions: calculated at pH 5.0, cCu(II) = 20 µM, cligand = 20 µM
Answers are plain numbers.

1) C[C@]12CC[C@@H]3c4cc(C=NNC(N)=O)c(O)cc4CC[C@H]3[C@@H]1CCC2O (some centres unmarked); 5.7
2) C[C@]12CC[C@@H]3c4cc(C=NNC(N)=S)c(O)cc4CC[C@H]3[C@@H]1CCC2O (some centres unmarked); 7.8
3) CC12CCC3c4cc(C=NNC(N)=O)c(O)cc4CCC3C1CCC2=O (centres unmarked); 5.8

State the recorded pCu5.0 for every item in the following list.
1. CNC(=S)NN=Cc1cc2c(cc1O)CC[C@@H]1[C@@H]2CC[C@]2(C)[C@@H](O)CC[C@@H]12
2. CNC(=S)NN=Cc1cc2c(cc1O)CCC1C2CCC2(C)C(=O)CCC12 (centres unmarked)

Response:
1: 7.6; 2: 7.7

====

For each entry below, report its pCu7.4 value.
Assay type: physicochemical
Conditions: estimated at pH 7.4, cCu(II) = 20 µM, cligand = 20 µM
Numbers only.

Worked set:
1. CN(C)C(=S)NN=Cc1cc2c(cc1O)CC[C@@H]1[C@@H]2CC[C@]2(C)[C@@H](O)CC[C@@H]12 [Me2-estradiol-TSC]; 12.4
2. C[C@]12CC[C@@H]3c4cc(C=NNC(N)=S)c(O)cc4CC[C@H]3[C@@H]1CCC2O (some centres unmarked) [estradiol-TSC]; 12.1
3. C[C@]12CC[C@@H]3c4cc(C=NNC(N)=O)c(O)cc4CC[C@H]3[C@@H]1CCC2O (some centres unmarked) [estradiol-SC]; 7.8

Now for another entry.
Query: Report pCu7.4 for CNC(=S)NN=Cc1cc2c(cc1O)CC[C@@H]1[C@@H]2CC[C@]2(C)[C@@H](O)CC[C@@H]12 [Me-estradiol-TSC] please.
Response: 11.8
